Values were extracted from paper PMC11510561.

- target.of.assay: urease (Canavalia ensiformis, UniProt P07374)
- Sequence (P07374 whole entry, looked up): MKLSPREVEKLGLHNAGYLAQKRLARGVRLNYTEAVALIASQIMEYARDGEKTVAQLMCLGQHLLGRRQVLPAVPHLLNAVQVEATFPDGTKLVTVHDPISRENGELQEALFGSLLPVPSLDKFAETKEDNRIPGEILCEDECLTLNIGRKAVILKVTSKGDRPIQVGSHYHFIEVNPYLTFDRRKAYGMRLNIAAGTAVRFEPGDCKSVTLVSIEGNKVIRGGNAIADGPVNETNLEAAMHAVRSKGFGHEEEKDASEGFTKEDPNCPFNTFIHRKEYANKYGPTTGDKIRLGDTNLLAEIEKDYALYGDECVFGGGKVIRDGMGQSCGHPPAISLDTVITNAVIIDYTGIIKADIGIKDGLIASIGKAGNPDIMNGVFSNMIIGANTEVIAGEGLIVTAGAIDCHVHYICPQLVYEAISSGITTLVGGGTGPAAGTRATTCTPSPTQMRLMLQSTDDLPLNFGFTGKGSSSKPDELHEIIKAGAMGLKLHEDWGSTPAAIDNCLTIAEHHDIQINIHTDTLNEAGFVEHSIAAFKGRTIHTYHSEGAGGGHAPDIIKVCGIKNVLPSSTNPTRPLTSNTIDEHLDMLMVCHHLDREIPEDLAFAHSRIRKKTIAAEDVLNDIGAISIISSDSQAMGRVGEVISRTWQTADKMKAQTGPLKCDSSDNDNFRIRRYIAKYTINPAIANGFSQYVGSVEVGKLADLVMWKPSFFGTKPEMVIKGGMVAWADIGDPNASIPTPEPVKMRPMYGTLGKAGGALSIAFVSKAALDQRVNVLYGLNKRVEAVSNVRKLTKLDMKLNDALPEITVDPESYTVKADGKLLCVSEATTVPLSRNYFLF
- test.summary: biochemical
- conditions: indophenol method, 37 degrees Celsius, half an hour, thiourea as reference; read-out: Urease Inhibition IC50
measure: IC50 (µM)
Value expressed in µM; do not type the unit.

# query: IC50 of entry NC(N)=S
20.7
